target-system: Voltage-gated N-type calcium channel alpha-1B subunit/Amyloid beta A4 precursor protein-binding family A member 1 (Homo sapiens, UniProt Q00975+Q02410)
Sequence (Q00975 whole entry): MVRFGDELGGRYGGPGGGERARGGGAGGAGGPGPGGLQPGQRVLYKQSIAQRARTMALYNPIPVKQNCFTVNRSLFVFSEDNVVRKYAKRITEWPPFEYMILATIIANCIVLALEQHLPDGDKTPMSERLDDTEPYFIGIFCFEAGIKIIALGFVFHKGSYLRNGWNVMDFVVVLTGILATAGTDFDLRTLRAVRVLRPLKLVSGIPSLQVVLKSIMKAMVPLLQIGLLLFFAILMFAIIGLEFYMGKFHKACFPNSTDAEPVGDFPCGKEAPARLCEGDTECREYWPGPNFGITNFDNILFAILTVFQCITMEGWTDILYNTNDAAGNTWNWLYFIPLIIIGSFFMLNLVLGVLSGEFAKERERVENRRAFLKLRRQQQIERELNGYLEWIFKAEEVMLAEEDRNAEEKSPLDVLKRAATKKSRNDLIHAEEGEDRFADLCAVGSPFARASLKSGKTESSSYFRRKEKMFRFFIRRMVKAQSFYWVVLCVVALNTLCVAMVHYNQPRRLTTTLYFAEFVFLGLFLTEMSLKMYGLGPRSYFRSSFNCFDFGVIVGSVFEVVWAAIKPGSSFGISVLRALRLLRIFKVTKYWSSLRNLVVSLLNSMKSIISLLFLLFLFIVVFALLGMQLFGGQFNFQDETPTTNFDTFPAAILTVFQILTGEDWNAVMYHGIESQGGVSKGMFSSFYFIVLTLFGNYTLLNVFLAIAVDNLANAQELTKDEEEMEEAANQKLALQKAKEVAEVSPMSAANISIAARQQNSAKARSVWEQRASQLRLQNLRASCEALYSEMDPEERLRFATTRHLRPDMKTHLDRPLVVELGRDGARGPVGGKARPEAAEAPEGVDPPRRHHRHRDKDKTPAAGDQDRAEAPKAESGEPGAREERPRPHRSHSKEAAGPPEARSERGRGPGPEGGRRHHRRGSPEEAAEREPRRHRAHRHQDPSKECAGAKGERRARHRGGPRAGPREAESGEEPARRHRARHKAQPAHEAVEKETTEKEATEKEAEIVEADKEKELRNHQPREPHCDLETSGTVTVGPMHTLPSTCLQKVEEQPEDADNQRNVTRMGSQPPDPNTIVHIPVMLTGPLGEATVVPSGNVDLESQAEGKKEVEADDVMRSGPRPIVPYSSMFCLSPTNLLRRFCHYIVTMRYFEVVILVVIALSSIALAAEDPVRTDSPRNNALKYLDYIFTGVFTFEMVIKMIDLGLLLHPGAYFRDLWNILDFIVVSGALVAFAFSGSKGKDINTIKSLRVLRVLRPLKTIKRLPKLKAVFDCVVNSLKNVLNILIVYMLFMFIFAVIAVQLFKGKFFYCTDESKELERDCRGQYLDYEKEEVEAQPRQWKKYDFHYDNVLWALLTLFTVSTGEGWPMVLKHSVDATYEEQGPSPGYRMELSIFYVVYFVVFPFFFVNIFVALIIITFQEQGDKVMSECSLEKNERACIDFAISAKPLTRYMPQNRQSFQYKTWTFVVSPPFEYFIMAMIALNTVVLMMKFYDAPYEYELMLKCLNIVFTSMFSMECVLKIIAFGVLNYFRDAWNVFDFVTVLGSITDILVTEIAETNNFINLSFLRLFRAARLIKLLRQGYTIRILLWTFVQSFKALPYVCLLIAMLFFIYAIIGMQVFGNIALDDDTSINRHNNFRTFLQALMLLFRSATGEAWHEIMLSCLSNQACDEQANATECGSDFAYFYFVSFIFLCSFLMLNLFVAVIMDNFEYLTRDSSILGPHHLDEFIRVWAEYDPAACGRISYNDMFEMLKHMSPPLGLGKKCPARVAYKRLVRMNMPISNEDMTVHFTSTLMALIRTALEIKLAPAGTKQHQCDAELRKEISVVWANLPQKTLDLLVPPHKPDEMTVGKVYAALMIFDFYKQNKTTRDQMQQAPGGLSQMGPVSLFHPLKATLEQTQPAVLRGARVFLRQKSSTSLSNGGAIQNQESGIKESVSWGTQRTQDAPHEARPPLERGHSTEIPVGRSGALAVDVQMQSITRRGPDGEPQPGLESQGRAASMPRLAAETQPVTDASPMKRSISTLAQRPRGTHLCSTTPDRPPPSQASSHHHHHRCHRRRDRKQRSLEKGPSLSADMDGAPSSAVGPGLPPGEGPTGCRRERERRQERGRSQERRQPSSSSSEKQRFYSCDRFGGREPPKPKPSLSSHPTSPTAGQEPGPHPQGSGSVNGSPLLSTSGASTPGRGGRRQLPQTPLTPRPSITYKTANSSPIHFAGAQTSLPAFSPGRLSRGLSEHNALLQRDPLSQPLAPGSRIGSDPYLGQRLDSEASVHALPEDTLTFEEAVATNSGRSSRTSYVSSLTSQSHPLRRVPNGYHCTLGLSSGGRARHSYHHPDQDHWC
Sequence (Q02410 whole entry): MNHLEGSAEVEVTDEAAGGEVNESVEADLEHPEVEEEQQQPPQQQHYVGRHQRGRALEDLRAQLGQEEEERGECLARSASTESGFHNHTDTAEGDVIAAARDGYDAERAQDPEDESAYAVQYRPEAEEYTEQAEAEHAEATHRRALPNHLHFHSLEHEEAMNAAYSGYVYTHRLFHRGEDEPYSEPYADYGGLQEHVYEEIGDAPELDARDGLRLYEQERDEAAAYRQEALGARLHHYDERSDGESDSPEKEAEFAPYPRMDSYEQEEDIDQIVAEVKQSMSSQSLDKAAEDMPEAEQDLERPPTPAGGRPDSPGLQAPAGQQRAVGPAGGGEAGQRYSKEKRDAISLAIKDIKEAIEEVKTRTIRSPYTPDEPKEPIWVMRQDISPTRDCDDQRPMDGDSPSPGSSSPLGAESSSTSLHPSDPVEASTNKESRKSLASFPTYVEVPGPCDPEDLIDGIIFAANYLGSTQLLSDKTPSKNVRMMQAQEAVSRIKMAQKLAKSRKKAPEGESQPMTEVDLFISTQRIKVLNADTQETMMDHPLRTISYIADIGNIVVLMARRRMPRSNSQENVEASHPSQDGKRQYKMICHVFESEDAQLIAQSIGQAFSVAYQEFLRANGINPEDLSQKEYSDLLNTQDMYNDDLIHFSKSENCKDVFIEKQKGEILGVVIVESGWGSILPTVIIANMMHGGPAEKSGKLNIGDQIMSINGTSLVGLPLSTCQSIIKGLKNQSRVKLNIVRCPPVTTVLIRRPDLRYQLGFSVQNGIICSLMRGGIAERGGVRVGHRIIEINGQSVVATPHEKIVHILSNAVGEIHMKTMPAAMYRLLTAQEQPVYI
Format: protein assay
Calls of active or inactive are those of the source.
Lab note: assign the record to one of active, inactive

Please state the recorded outcome for this molecule: CN1CSC2=C(C#N)C(c3cccc(OCc4ccccc4)c3)CC(=O)N2C1 (centres undefined) active

Please state the recorded outcome for this molecule: `O=C(NCCCO)Nc1ccc2nc(-c3ccco3)c(-c3ccco3)nc2c1` active

Please state the recorded outcome for this molecule: `CCOc1ccc(NC(=O)Cn2sc3nc(C)cc(C)c3c2=O)cc1` inactive

Please state the recorded outcome for this molecule: `O=C(O)Cc1sc(Nc2ccc(Cl)cc2)nc1-c1cccs1` inactive

* * *

target-system: Genome polyprotein (dengue virus type 2, UniProt P29990)
Sequence (P29990 2492-3391 limits assumed): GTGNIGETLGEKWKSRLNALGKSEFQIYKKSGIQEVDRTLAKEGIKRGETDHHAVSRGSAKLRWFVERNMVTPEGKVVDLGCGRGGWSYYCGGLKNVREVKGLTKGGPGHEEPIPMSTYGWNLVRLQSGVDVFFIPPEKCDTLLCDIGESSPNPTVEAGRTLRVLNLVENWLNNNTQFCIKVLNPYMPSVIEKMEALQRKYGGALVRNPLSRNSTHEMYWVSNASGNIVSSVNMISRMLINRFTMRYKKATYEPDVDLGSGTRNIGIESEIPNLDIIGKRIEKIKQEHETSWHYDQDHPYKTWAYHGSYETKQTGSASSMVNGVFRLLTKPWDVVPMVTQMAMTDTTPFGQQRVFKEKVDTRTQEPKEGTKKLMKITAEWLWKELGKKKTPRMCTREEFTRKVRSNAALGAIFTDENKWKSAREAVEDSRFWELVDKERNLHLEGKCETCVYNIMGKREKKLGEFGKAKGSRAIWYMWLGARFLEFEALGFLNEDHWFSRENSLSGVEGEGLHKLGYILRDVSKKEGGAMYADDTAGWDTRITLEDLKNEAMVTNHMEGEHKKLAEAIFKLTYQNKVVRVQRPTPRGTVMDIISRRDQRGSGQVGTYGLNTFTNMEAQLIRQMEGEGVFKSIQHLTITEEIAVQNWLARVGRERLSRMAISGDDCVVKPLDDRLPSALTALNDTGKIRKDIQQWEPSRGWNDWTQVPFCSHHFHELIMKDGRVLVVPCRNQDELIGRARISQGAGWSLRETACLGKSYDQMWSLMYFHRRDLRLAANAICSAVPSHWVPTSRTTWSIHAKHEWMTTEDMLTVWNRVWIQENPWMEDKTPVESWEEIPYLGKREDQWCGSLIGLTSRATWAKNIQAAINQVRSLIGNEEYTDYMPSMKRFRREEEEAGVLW
run-description: flavivirus cap methylation enzyme inhibition – biochemical, confirmation dose response, primary screen (AID 588689)
Assay type: functional
Calls of active or inactive are those of the source.
measured-metric: IC50

Check Genome polyprotein (dengue virus type 2, UniProt P29990) data and give IC50 for CCCCC(NC(=O)Cc1c(C)c2cc3c(-c4ccccc4)coc3c(C)c2oc1=O)C(=O)O (configuration not stated) . 51 µM (active)

Check Genome polyprotein (dengue virus type 2, UniProt P29990) data and give IC50 for `CC1=CC(=O)C(C(C)C)=C/C1=C(\c1cc(C(C)C)c(OP(=O)(O)O)cc1C)c1ccccc1C(=O)O` . 33.4 µM (active)

Check Genome polyprotein (dengue virus type 2, UniProt P29990) data and give IC50 for `O=C(Nc1ccc(Cl)cc1C(=O)O)c1ccc2c(c1)C(=O)N(Cc1ccco1)C2=O` . 46.3 µM (active)

Check Genome polyprotein (dengue virus type 2, UniProt P29990) data and give IC50 for `CCOc1cc(CNc2ccc(N3CCCC3)cc2)cc(Cl)c1OC` . 48.2 µM (active)

Check Genome polyprotein (dengue virus type 2, UniProt P29990) data and give IC50 for `N=C1/C(=C\c2ccc(OC(=O)c3ccc(F)cc3)cc2)C(=O)N=C2SC(N3CCOCC3)=NN12` . 19.2 µM (active)

Check Genome polyprotein (dengue virus type 2, UniProt P29990) data and give IC50 for CCOC(=O)c1c(-c2ccc(-c3ccccc3)cc2)csc1NC(=O)C1C2CCC(O2)C1C(=O)O (configuration not stated) . 29.6 µM (active)

Check Genome polyprotein (dengue virus type 2, UniProt P29990) data and give IC50 for `O=C(O)CSc1nc(-c2ccc(Cl)cc2)nc2c1oc1ccccc12` . 40.6 µM (active)

* * *

target-system: Paired box protein Pax-8 (Homo sapiens, UniProt Q06710)
Sequence (Q06710 whole entry): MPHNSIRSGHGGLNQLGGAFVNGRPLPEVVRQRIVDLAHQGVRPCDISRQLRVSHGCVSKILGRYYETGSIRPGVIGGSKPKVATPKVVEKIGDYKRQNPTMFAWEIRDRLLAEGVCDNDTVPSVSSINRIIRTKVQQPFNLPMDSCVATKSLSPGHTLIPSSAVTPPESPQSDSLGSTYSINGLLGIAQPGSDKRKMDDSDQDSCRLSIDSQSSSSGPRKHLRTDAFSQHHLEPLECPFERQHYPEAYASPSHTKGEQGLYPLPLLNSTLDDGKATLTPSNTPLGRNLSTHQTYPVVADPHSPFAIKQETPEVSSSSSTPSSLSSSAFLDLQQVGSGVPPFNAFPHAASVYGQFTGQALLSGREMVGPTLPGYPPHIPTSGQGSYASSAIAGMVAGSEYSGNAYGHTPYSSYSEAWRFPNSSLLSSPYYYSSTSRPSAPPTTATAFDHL
run-description: PAX8 transcriptional activity inhibition in RMG-I – RMG-I cells, luciferase, cherry-pick, dose response (AID 687027);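 note: luciferase reporter driven by Pax8 target thyroperoxidase promoter measured by SteadyGlo luminescence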
Format: functional, cell-based
Active and inactive are the calls of the source.
Exercise: state measured AC50 for each of the molecules provided.

Check Paired box protein Pax-8 (Homo sapiens, UniProt Q06710) data and give AC50 for COc1cc([C@@H]2c3cc4c(cc3[C@H](O)[C@H]3COC(=O)[C@H]23)OCO4)cc(OC)c1OC [PODOFILOX] . < 0.26 µM (active)

Check Paired box protein Pax-8 (Homo sapiens, UniProt Q06710) data and give AC50 for CC(N)C(=O)NC1C2C(=C(O)OC1(C)C(Cl)Cl)C(=O)CC(O)C2O (stereo unspecified) . 0.546 µM (active)

Check Paired box protein Pax-8 (Homo sapiens, UniProt Q06710) data and give AC50 for C=C1C(=O)[C@]23C[C@H]1CCC2[C@]1(C)CCC[C@@](C)(C(=O)O)C1C[C@@H]3O (stereo partly specified) . 1.77 µM (active)

Check Paired box protein Pax-8 (Homo sapiens, UniProt Q06710) data and give AC50 for `CC(C)CC#Cc1ccc([C@@H]2[C@@H](CO)N3CCCCN(S(=O)(=O)c4ccc(F)cc4)C[C@H]23)cc1` . 12.4 µM (active)

Check Paired box protein Pax-8 (Homo sapiens, UniProt Q06710) data and give AC50 for `C[C@H]1CN([C@@H](C)CO)C(=O)CCCn2nncc2CO[C@@H]1CN(C)C(=O)Nc1ccc(-c2cccs2)cc1` . 0.48 µM (active)

Check Paired box protein Pax-8 (Homo sapiens, UniProt Q06710) data and give AC50 for `C[C@@H]1CN([C@@H](C)CO)C(=O)Cc2cc(NC(=O)Nc3ccc(C(F)(F)F)cc3)ccc2O[C@H]1CN(C)S(=O)(=O)c1ccc(F)cc1` . 9.39 µM (active)

Check Paired box protein Pax-8 (Homo sapiens, UniProt Q06710) data and give AC50 for `COc1ccc(NC(=O)N2CC(=O)N3[C@H](C2)[C@H](c2ccc(/C=C/c4ccccc4)cc2)[C@@H]3CO)cc1` . 5.72 µM (active)

Check Paired box protein Pax-8 (Homo sapiens, UniProt Q06710) data and give AC50 for `C[C@H]1CN([C@@H](C)CO)C(=O)c2c(c3ccccc3n2C)-c2ccccc2CO[C@@H]1CN(C)Cc1ccc(-c2ccccc2)cc1` . 24.9 µM (active)

Check Paired box protein Pax-8 (Homo sapiens, UniProt Q06710) data and give AC50 for CC(C)CCCCCCCCCCCCC(=O)NCC(=O)NC1C(C)OC(Nc2[nH]cnc3ncnc2-3)C(O)C1O (stereo unspecified) . < 0.26 µM (active)

Check Paired box protein Pax-8 (Homo sapiens, UniProt Q06710) data and give AC50 for `Cc1ccc(S(=O)(=O)N(C)C[C@H]2Oc3ccc(NS(=O)(=O)c4ccc(F)cc4)cc3CC(=O)N([C@H](C)CO)C[C@H]2C)cc1` . 21.5 µM (active)

Check Paired box protein Pax-8 (Homo sapiens, UniProt Q06710) data and give AC50 for `C[C@@H]1CCCCO[C@@H](CN(C)C(=O)C2CCCCC2)[C@H](C)CN([C@@H](C)CO)C(=O)c2cc(NS(=O)(=O)c3ccc(Cl)cc3)ccc2O1` . 9.05 µM (active)
